- Target: proliferating cell nuclear antigen (PCNA) (UniProt P12004 1-261)
- Sequence (P12004 whole entry): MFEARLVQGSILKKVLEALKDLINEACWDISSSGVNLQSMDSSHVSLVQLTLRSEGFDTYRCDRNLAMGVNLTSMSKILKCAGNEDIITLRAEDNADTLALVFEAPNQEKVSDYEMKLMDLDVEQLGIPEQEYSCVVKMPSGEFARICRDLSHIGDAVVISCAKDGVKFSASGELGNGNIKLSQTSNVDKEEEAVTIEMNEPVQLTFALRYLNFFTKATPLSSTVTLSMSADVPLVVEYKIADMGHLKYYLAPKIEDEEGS
- Assay Remarks: ITC
Property Label: Kd (nM)

{"Binder": "Ac-RKRRQTSMTDFYHSKRR-NH2 [p21_(140–156) peptide (wild-type p21 PIP-degron with flanking regions)]", "Property Label": "Kd", "Endpoint Unit": "nM", "Endpoint Result": 19}
